- TARGET_UNDER_TEST: GSNOR enzyme (Homo sapiens)
- ASSAY_DETAILS: GSNOR inhibition assay (rate of NADH consumption, 340 nm absorbance)
- Assay type: biochemical
- CONDITION_SET: Table 2b; test compound 20 uM; read-out: % GSNOR Inhibition at 20 uM
MEASURED_METRIC: inhibition at 20 µM (%)
Give bare numbers, in %.

Provide inhibition at 20 µM, system GSNOR enzyme (Homo sapiens), entry COc1ccc(-n2c3ccc(-n4ccnc4)cc3c3ccc(CCC(=O)O)cc32)cc1 [Compound 24]
90

Count: 3. Required value per item: inhibition at 20 µM.
1. NC(=O)CCn1c2ccc(-n3ccnc3)cc2c2ccc(C(=O)O)cc21 [Compound 10]
2. Cc1cc(C#N)ccc1-n1c2ccc(-n3ccnc3)cc2c2ccc(CCC(=O)O)cc21 [Compound 19]
3. Cc1cc(C(N)=O)ccc1-n1c2ccc(-n3ccnc3)cc2c2ccc(CCC(=O)O)cc21 [Compound 21]

[75, 81.3, 93.6]

###

- TARGET_UNDER_TEST: GSNOR enzyme (Homo sapiens, UniProt P11766)
- Sequence (P11766 whole entry): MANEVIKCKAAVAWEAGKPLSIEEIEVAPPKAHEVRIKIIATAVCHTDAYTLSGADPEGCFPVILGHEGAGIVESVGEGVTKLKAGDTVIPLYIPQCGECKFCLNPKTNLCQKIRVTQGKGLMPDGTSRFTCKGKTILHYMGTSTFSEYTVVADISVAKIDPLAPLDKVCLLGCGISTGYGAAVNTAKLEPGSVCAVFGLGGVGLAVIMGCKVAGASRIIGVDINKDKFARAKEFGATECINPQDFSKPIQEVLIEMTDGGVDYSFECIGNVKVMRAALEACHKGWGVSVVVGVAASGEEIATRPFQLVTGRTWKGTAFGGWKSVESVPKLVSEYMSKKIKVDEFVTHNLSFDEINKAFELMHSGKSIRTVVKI
- ASSAY_DETAILS: GSNOR inhibition assay (rate of NADH consumption, 340 nm absorbance)
- Type: biochemical
- CONDITION_SET: Table 2b; test compound 20 uM; read-out: % GSNOR Inhibition at 20 uM
Kindly supply the reported inhibition at 20 µM values for the records listed here.
Answers are plain numbers, in %.

Provide inhibition at 20 µM, system GSNOR enzyme (Homo sapiens, UniProt P11766), entry NC(=O)c1ccc(-n2c3cc(Cn4ccnc4)ccc3c3ccc(C(=O)O)cc32)c([N+](=O)[O-])c1
89

Count: 7. Required value per item: inhibition at 20 µM.
1. O=C(O)CCc1ccc2c3cc(-n4ccnc4)ccc3n(-c3ccc(O)cc3)c2c1
2. O=C(O)CCc1ccc2c3cc(-n4ccnc4)ccc3n(-c3ccc(Cl)cc3)c2c1
3. N#CCCn1c2ccc(-n3ccnc3)cc2c2ccc(CCC(=O)O)cc21
4. N#CCCCCn1c2ccc(-n3ccnc3)cc2c2ccc(CCC(=O)O)cc21
5. COc1ccc(-n2c3ccc(-n4ccnc4)cc3c3ccc(CCC(=O)O)cc32)c(C)c1
6. NC(=O)CCn1c2cc(Cn3ccnc3)ccc2c2ccc(C(=O)O)cc21
7. NC(=O)CCn1c2ccc(-n3ccnc3)cc2c2ccc(CCC(=O)O)cc21

93.4
81.4
92.4
92.9
92
80
92.8

Count: 2. Required value per item: inhibition at 20 µM.
1. NC(=O)c1ccc(-n2c3ccc(-n4ccnc4)cc3c3ccc(CCC(=O)O)cc32)cc1
2. N#Cc1ccc(-n2c3ccc(-n4ccnc4)cc3c3ccc(CCC(=O)O)cc32)cc1

[88.9, 72.4]

###

Parameter IC50, tested on GSNOR enzyme (Homo sapiens), listed per item.

Example cases with answers are listed next.
Provide IC50, system GSNOR enzyme (Homo sapiens), entry Cc1cc(C(N)=O)ccc1-n1c2ccc(-n3ccnc3)cc2c2ccc(CCC(=O)O)cc21
1000 to 5000 nM

Provide IC50, system GSNOR enzyme (Homo sapiens), entry NC(=O)CCn1c2ccc(-n3ccnc3)cc2c2ccc(CCC(=O)O)cc21
1000 to 5000 nM

Provide IC50, system GSNOR enzyme (Homo sapiens), entry N#Cc1ccc(-n2c3ccc(-n4ccnc4)cc3c3ccc(CCC(=O)O)cc32)cc1
> 5000 nM

Provide IC50, system GSNOR enzyme (Homo sapiens), entry N#CCCn1c2ccc(-n3ccnc3)cc2c2ccc(CCC(=O)O)cc21
< 1000 nM

Now take the following compound into account.
Provide IC50, system GSNOR enzyme (Homo sapiens), entry N#CCCCCn1c2ccc(-n3ccnc3)cc2c2ccc(CCC(=O)O)cc21
< 1000 nM
